- METHOD DESCRIPTION: Prodrug stability in freshly withdrawn porcine intestinal fluid
- Assay type: in vitro ADME
- PARTICULARS: porcine intestinal fluid
VALUE KIND: stability in porcine intestinal fluid (in words)

CC(C)[C@@H](N)C(=O)NCCC(=O)NC(=N)NC(=O)Cc1c(Cl)cccc1Cl [Compound 11, Guanfacine (β-Alanine-(R)-Valine) Amide] | high stability
N=C(NC(=O)Cc1c(Cl)cccc1Cl)NC(=O)c1ccc(N)cc1 [Compound 52, Guanfacine PABA Amide] | high stability
CC(C)[C@H](N)C(=O)NCCC(=O)NC(=N)NC(=O)Cc1c(Cl)cccc1Cl [Compound 2, Guanfacine (β-Alanine-(S)-Valine) Amide] | intermediate stability
CC(C)[C@H](N)C(=O)NCCOC(=O)NC(=N)NC(=O)Cc1c(Cl)cccc1Cl | very unstable
C[C@@H](N)C(=O)N[C@@H](CCC(=O)NC(=N)NC(=O)Cc1c(Cl)cccc1Cl)C(=O)O | high stability

Please report stability in porcine intestinal fluid (in words) for every entry that follows.
1. CNCC(=O)N[C@@H](COC(=O)NC(=N)NC(=O)Cc1c(Cl)cccc1Cl)C(=O)O
2. CNCC(=O)N[C@H](C(=O)O)[C@@H](C)OC(=O)NC(=N)NC(=O)Cc1c(Cl)cccc1Cl
3. CC(C)[C@H](N)C(=O)N[C@@H](COC(=O)NC(=N)NC(=O)Cc1c(Cl)cccc1Cl)C(=O)O
4. CC(C)[C@H](NC(=O)CCCC(=O)NC(=N)NC(=O)Cc1c(Cl)cccc1Cl)C(=O)O [Compound 1, Guanfacine (Glutaryl-(S)-Valine) Amide]

[reply]
1: intermediate stability; 2: high stability; 3: very unstable; 4: high stability

###

I'd be grateful if you could share measured % prodrug remaining following incubation for 2 h in simulated intestinal fluid pH 6.8 for these entries.
- METHOD DESCRIPTION: Prodrug stability in simulated intestinal fluid
- PARTICULARS: 37° C., pH 6.8, HPLC
One number for each entry, in %.

Some molecules with recorded % prodrug remaining following incubation for 2 h in simulated intestinal fluid pH 6.8:
N=C(NC(=O)CCNC(=O)[C@@H]1CCC(=O)N1)NC(=O)Cc1c(Cl)cccc1Cl | 112
CSCC[C@@H](N)C(=O)N[C@@H](CCC(=O)NC(=N)NC(=O)Cc1c(Cl)cccc1Cl)C(=O)O | 85
N=C(NC(=O)Cc1c(Cl)cccc1Cl)NC(=O)OCCNC(=O)[C@@H]1CCC(=O)N1 | 106
CC(C)[C@@H](N)C(=O)NCCCC(=O)NC(=N)NC(=O)Cc1c(Cl)cccc1Cl [Compound 22, Guanfacine (GABA-(R)-Valine) Amide] | 85
CC(C)[C@H](NC(=O)CCCC(=O)NC(=N)NC(=O)Cc1c(Cl)cccc1Cl)C(=O)O [Compound 1, Guanfacine (Glutaryl-(S)-Valine) Amide] | 92
CC(C)[C@H](N)C(=O)NCCOC(=O)NC(=N)NC(=O)Cc1c(Cl)cccc1Cl | 91

Turning to the following molecule.
Form field % prodrug remaining following incubation for 2 h in simulated intestinal fluid pH 6.8, entry CC(C)[C@@H](N)C(=O)N[C@H](CCC(=O)NC(=N)NC(=O)Cc1c(Cl)cccc1Cl)C(=O)O : 85

###

- METHOD DESCRIPTION: Prodrug stability in simulated gastric fluid
- PARTICULARS: 37° C., pH 1.1, HPLC
Assign % prodrug remaining following incubation for 1 h in simulated gastric fluid pH 1.1 to each entry below.
Answers are plain numbers, in %.

N=C(NC(=O)CC[C@H](NC(=O)c1ccc(N)cc1)C(=O)O)NC(=O)Cc1c(Cl)cccc1Cl [Compound 70, Guanfacine ((S)-γ-Glutamate-PABA) Amide] | 64
CC(C)[C@@H](N)C(=O)N[C@@H](CCC(=O)NC(=N)NC(=O)Cc1c(Cl)cccc1Cl)C(=O)O | 86

Documented % prodrug remaining following incubation for 1 h in simulated gastric fluid pH 1.1 of CN1CC(=O)N=C1NC(=O)Cc1c(Cl)cccc1Cl : 48

###

- METHOD DESCRIPTION: Comparative bioavailability study in monkeys in the fasted or fed state
- Assay type: in vivo, cynomolgus monkey
- PARTICULARS: male, cynomolgus monkey, plasma, po, 0.5 mg/kg, Fasted, 0.5 mg/kg guanfacine equivalent dose, oral; read-out: mean Cmax prodrug
VALUE KIND: Cmax

# Cmax of CC(C)[C@H](NC(=O)CCCC(=O)NC(=N)NC(=O)Cc1c(Cl)cccc1Cl)C(=O)O [Compound 1, Guanfacine (Glutaryl-(S)-Valine) Amide] = 9.23 ng/mL

###

- METHOD DESCRIPTION: Prodrug stability in simulated gastric fluid
- PARTICULARS: 37° C., pH 1.1, HPLC
Hi there, I'd appreciate the recorded % prodrug remaining following incubation for 1 h in simulated gastric fluid pH 1.1 for every entry that follows.
Answers are plain numbers, in %.

N=C(NC(=O)Cc1c(Cl)cccc1Cl)NC(=O)OCCNC(=O)[C@@H]1CCC(=O)N1 | 103
N=C(NC(=O)CC[C@H](NC(=O)c1ccc(C(=O)O)cc1)C(=O)O)NC(=O)Cc1c(Cl)cccc1Cl | 81
N=C(NC(=O)CC[C@H](NC(=O)[C@H](N)CCC(N)=O)C(=O)O)NC(=O)Cc1c(Cl)cccc1Cl | 61
N=C(NC(=O)Cc1c(Cl)cccc1Cl)NC(=O)NC(C(=O)O)c1ccccc1 (stereo not shown) | 96
CN(CC(=O)O)C(=O)NC(=N)NC(=O)Cc1c(Cl)cccc1Cl | 101

Provide % prodrug remaining following incubation for 1 h in simulated gastric fluid pH 1.1 for all items below, preserving their order.
1. N=C(NC(=O)CCCNC(=O)CC[C@H](N)C(=O)O)NC(=O)Cc1c(Cl)cccc1Cl [Compound 57, Guanfacine (GABA-(S)-γ-Glutamate) Amide]
2. NCCCC[C@@H]1N=C(NC(=O)Cc2c(Cl)cccc2Cl)NC1=O [Compound 36, Guanfacine-(S)-Lysine Cyclic Adduct]

[reply]
1: 81; 2: 83

###

- System: gastrointestinal transit of a charcoal meal in the rat
- METHOD DESCRIPTION: Charcoal propulsion test (gut motility) in rat
- Type: in vivo
- PARTICULARS: Study 1, dose 0.3 mg/kg guanfacine free base equivalents, oral
Where a name gives a salt, the structure may show the parent alone.
Consider the following compounds; for each one, report its % change in GI transit vs vehicle.
Numbers only, in %.

CC(C)[C@@H](N)C(=O)N[C@@H](CCC(=O)NC(=N)NC(=O)Cc1c(Cl)cccc1Cl)C(=O)O | −22

Please state % change in GI transit vs vehicle for every compound in the list that follows.
1. CC(C)[C@H](N)C(=O)NCCC(=O)NC(=N)NC(=O)Cc1c(Cl)cccc1Cl [Compound 2, Guanfacine (β-Alanine-(S)-Valine) Amide]
2. CC(C)[C@H](NC(=O)CCCC(=O)NC(=N)NC(=O)Cc1c(Cl)cccc1Cl)C(=O)O [Compound 1, Guanfacine (Glutaryl-(S)-Valine) Amide]
3. N=C(N)NC(=O)Cc1c(Cl)cccc1Cl [Guanfacine, monohydrochloride, reference compound]

[reply]
1. −30
2. −6
3. −55

###

- METHOD DESCRIPTION: Prodrug stability in simulated intestinal fluid
- PARTICULARS: 37° C., pH 6.8, HPLC
VALUE KIND: % prodrug remaining following incubation for 2 h in simulated intestinal fluid pH 6.8 (%)
One number for each entry, in %.

N=C(NC(=O)Cc1c(Cl)cccc1Cl)NC(=O)c1ccc(N)cc1 [Compound 52, Guanfacine PABA Amide] | 97

Below are 6 molecules. Give each one its % prodrug remaining following incubation for 2 h in simulated intestinal fluid pH 6.8.
1. N=C(NC(=O)Cc1c(Cl)cccc1Cl)NC(=O)OCC[C@H](NC(=O)CCN)C(=O)O
2. CC(C)[C@@H](N)C(=O)N[C@@H](COC(=O)NC(=N)NC(=O)Cc1c(Cl)cccc1Cl)C(=O)O
3. CC(C)C[C@@H](N)C(=O)N[C@@H](CCC(=O)NC(=N)NC(=O)Cc1c(Cl)cccc1Cl)C(=O)O
4. CC(C)[C@H](N)C(=O)NCCCC(=O)NC(=N)NC(=O)Cc1c(Cl)cccc1Cl [Compound 56, Guanfacine (GABA-(S)-Valine) Amide]
5. C[C@@H](OC(=O)NC(=N)NC(=O)Cc1c(Cl)cccc1Cl)[C@H](NC(=O)[C@@H]1CCC(=O)N1)C(=O)O
6. CN(CC(=O)O)C(=O)NC(=N)NC(=O)Cc1c(Cl)cccc1Cl

[reply]
97
108
83
111
102
105

###

Field: % change in GI transit vs vehicle. Provide a value for each of the molecules that follow.
- Test system: gastrointestinal transit of a charcoal meal in the rat
- METHOD DESCRIPTION: Charcoal propulsion test (gut motility) in rat
- Format: in vivo
- PARTICULARS: Study 1, dose 1 mg/kg guanfacine free base equivalents, oral
Where a name gives a salt, the structure may show the parent alone.
Give bare numbers, in %.

Solved cases below.
N=C(N)NC(=O)Cc1c(Cl)cccc1Cl [Guanfacine, monohydrochloride, reference compound] | −47
CC(C)[C@@H](N)C(=O)N[C@@H](CCC(=O)NC(=N)NC(=O)Cc1c(Cl)cccc1Cl)C(=O)O | −48
CC(C)[C@H](N)C(=O)NCCC(=O)NC(=N)NC(=O)Cc1c(Cl)cccc1Cl [Compound 2, Guanfacine (β-Alanine-(S)-Valine) Amide] | −42

Turning now to a further record.
Lab entry: gastrointestinal transit of a charcoal meal in the rat assay, molecule CC(C)[C@H](NC(=O)CCCC(=O)NC(=N)NC(=O)Cc1c(Cl)cccc1Cl)C(=O)O [Compound 1, Guanfacine (Glutaryl-(S)-Valine) Amide] , % change in GI transit vs vehicle = −45
